Measured values drawn from paper PMC5365645 for this set.

# Assay protocol: Volume of distribution after i.v. administration (literature)
# Test context: in vivo, iv, Rat, calculated using previously published data ref 17, read-out: Vd ss
*1 amine or outer side, *2 acyl side, *3 side chain or, on linkers, in order; H or OH if unused. Where a SMILES comes first, the peptide text is derived from it. Bridges are numbered along the chain shown (N, C = ends). [ ]: non-standard residue; d: D form. The star is where a group is joined. pTerphenylCO(4''-OnC5H11) = CCCCCOc1ccc(-c2ccc(-c3ccc(C(=O)*)cc3)cc2)cc1; Orn(4R-OH,5R-OH) = O=C([C@H](C[C@@H](O)[C@@H](O)N[*:3])N[*:1])[*:2]; hTyr(3S-OH,4S-OH) = N[C@H](C(=O)O)[C@H](O)[C@@H](O)c1ccc(O)cc1; Pro(3S-OH,4S-Me) = C[C@H]1CN[C@H](C(=O)O)[C@H]1O; Hyp = O=C(O)[C@@H]1C[C@@H](O)CN1
Experimental endpoint: Vd (L/kg)
Entry rule: numbers only, all in L/kg.

Can you share its Vd? I mean this compound: CCCCCOc1ccc(-c2ccc(-c3ccc(C(=O)N[C@H]4C[C@@H](O)[C@@H](O)NC(=O)[C@@H]5[C@@H](O)[C@@H](C)CN5C(=O)[C@H]([C@@H](C)O)NC(=O)[C@H]([C@H](O)[C@@H](O)c5ccc(O)cc5)NC(=O)[C@@H]5C[C@@H](O)CN5C(=O)[C@H]([C@@H](C)O)NC4=O)cc3)cc2)cc1 [Anidulafungin, anidulafungin] ({pTerphenylCO(4''-OnC5H11)}-[Orn(4R-OH,5R-OH)]T[Hyp][hTyr(3S-OH,4S-OH)]T[Pro(3S-OH,4S-Me)]; lactam 1-C)
2.16

* * *

# Assay protocol: In vitro metabolic stability in hepatic microsomes
# Type: in vitro ADME, mouse
# Test context: pooled liver microsomes; female mouse liver microsomes
Experimental endpoint: half-life at 1 μM

Report half-life at 1 μM for CC(C)[C@@H](C)[C@@]1(C)CC[C@]2(C)[C@H]3CC[C@@H]4[C@@]5(COC[C@@]4(C)[C@@H](OC[C@](C)(N)C(C)(C)C)[C@H](n4ncnc4-c4ccncc4)C5)C3=CC[C@@]2(C)[C@@H]1C(=O)O please.
> 2.25 h

* * *

# Assay protocol: In vitro metabolic stability in hepatic microsomes, dog or human summary
# Format: in vitro ADME
# Test context: both sexes, liver microsomes, larger species (dog, human), read-out: Intrinsic clearance
# Protocol: Scaling intrinsic clearance to hepatic clearance based on liver blood flow indicates low clearance in rodents and moderate clearance in dogs and humans ([15]). […] The metabolic stability of SCY-078 was evaluated with male and female mouse, male rat, male and female dog, and mixed-gender human liver microsomes (XenoTech, Lenexa, KS). […] Supernatants from the incubation mixtures were analyzed for the parent compound by LC-MS/MS according to the conditions described below. […]
Experimental endpoint: microsomal CLint at 1 μM

Recorded microsomal CLint at 1 μM of CC(C)[C@@H](C)[C@@]1(C)CC[C@]2(C)[C@H]3CC[C@@H]4[C@@]5(COC[C@@]4(C)[C@@H](OC[C@](C)(N)C(C)(C)C)[C@H](n4ncnc4-c4ccncc4)C5)C3=CC[C@@]2(C)[C@@H]1C(=O)O , please.
< 48 µL/min/mg

* * *

# Assay protocol: in vivo
# Parameters: species or system female CD-1 mice
# Test context: female, CD-1, mouse, po, 12 mg/kg, Half-life in plasma
Experimental endpoint: half-life

Record request: half-life value, item CC(C)[C@@H](C)[C@@]1(C)CC[C@]2(C)[C@H]3CC[C@@H]4[C@@]5(COC[C@@]4(C)[C@@H](OC[C@](C)(N)C(C)(C)C)[C@H](n4ncnc4-c4ccncc4)C5)C3=CC[C@@]2(C)[C@@H]1C(=O)O
~8.3 h

* * *

# Assay protocol: in vivo
# Parameters: species or system female CD-1 mice
# Test context: female, CD-1, mouse, 6.25 mg/kg
Experimental endpoint: bioavailability

Quick check: bioavailability of CC(C)[C@@H](C)[C@@]1(C)CC[C@]2(C)[C@H]3CC[C@@H]4[C@@]5(COC[C@@]4(C)[C@@H](OC[C@](C)(N)C(C)(C)C)[C@H](n4ncnc4-c4ccncc4)C5)C3=CC[C@@]2(C)[C@@H]1C(=O)O ?
> 41%

* * *

# Assay protocol: Plasma protein binding by equilibrium dialysis
# Type: in vitro ADME
# Test context: beagle, pH 7.4; dog plasma, 1 μM
# Description: Protein binding of [^3H]SCY-078 in mouse, rat, dog, and human plasma was determined by means of equilibrium dialysis and liquid scintillation counting. Tritium-labeled SCY-078 in ethanol was added to unlabeled SCY-078 in methanol to prepare stock solutions at 10, 100, and 1,000 μM SCY-078 with constant activity. Protein binding was determined against isotonic phosphate-buffered saline (pH 7.4) at 37°C for 24 h. […]
Experimental endpoint: fraction unbound at 24 h, 1 μM
No unit in the answer, only the number.

Suppose we examine the compound CC(C)[C@@H](C)[C@@]1(C)CC[C@]2(C)[C@H]3CC[C@@H]4[C@@]5(COC[C@@]4(C)[C@@H](OC[C@](C)(N)C(C)(C)C)[C@H](n4ncnc4-c4ccncc4)C5)C3=CC[C@@]2(C)[C@@H]1C(=O)O ; what fraction unbound at 24 h, 1 μM value has been reported?
0.005

* * *

# Assay protocol: in vivo
# Test context: female, CD-1, mouse, kidney, po, 12 mg/kg
Experimental endpoint: AUC(0-inf)
Write the numeric value and append its unit.

Bench note: what AUC(0-inf) did CC(C)[C@@H](C)[C@@]1(C)CC[C@]2(C)[C@H]3CC[C@@H]4[C@@]5(COC[C@@]4(C)[C@@H](OC[C@](C)(N)C(C)(C)C)[C@H](n4ncnc4-c4ccncc4)C5)C3=CC[C@@]2(C)[C@@H]1C(=O)O show?
700 µg·h/mL

* * *

# Assay protocol: In vitro metabolic stability in hepatic microsomes
# Assay type: in vitro ADME
# Test context: both sexes, human, pooled liver microsomes, human (mixed) liver microsomes
Experimental endpoint: half-life at 1 μM

Give its half-life at 1 μM value. Item: CC(C)[C@@H](C)[C@@]1(C)CC[C@]2(C)[C@H]3CC[C@@H]4[C@@]5(COC[C@@]4(C)[C@@H](OC[C@](C)(N)C(C)(C)C)[C@H](n4ncnc4-c4ccncc4)C5)C3=CC[C@@]2(C)[C@@H]1C(=O)O
≥ 42 min

* * *

# Assay protocol: Plasma protein binding by equilibrium dialysis
# Format: in vitro ADME
# Test context: beagle, pH 7.4; dog plasma, 0.1 μM
Experimental endpoint: fraction unbound at 24 h, 0.1 μM
Output: the number by itself.

I would be grateful if you could share the reported fraction unbound at 24 h, 0.1 μM for CC(C)[C@@H](C)[C@@]1(C)CC[C@]2(C)[C@H]3CC[C@@H]4[C@@]5(COC[C@@]4(C)[C@@H](OC[C@](C)(N)C(C)(C)C)[C@H](n4ncnc4-c4ccncc4)C5)C3=CC[C@@]2(C)[C@@H]1C(=O)O .
0.004

* * *

# Assay protocol: in vivo
# Design: species or system beagle dogs
# Test context: both sexes, beagle, dog, po, 20 mg/kg
Experimental endpoint: Cmax (ng/mL)
Just the number in ng/mL, nothing appended.

# query: Cmax of entry CC(C)[C@@H](C)[C@@]1(C)CC[C@]2(C)[C@H]3CC[C@@H]4[C@@]5(COC[C@@]4(C)[C@@H](OC[C@](C)(N)C(C)(C)C)[C@H](n4ncnc4-c4ccncc4)C5)C3=CC[C@@]2(C)[C@@H]1C(=O)O [SCY-078]
810

* * *

# Assay protocol: Plasma protein binding by equilibrium dialysis
# Assay type: in vitro ADME
# Test context: DBA, pH 7.4; mouse plasma, 0.1 μM
Experimental endpoint: fraction unbound at 24 h, 0.1 μM
# answer = number (no unit)

Would you kindly share the measured fraction unbound at 24 h, 0.1 μM for CC(C)[C@@H](C)[C@@]1(C)CC[C@]2(C)[C@H]3CC[C@@H]4[C@@]5(COC[C@@]4(C)[C@@H](OC[C@](C)(N)C(C)(C)C)[C@H](n4ncnc4-c4ccncc4)C5)C3=CC[C@@]2(C)[C@@H]1C(=O)O [SCY-078] ?
0.002

* * *

# Assay protocol: in vivo
# Test context: female, CD-1, mouse, kidney/plasma, oral, 12 mg/kg
Experimental endpoint: Kp at 12 h
Provide a numeric answer; units are not to be included.

Dear colleague, I am looking for the recorded Kp at 12 h of the following molecule: CC(C)[C@@H](C)[C@@]1(C)CC[C@]2(C)[C@H]3CC[C@@H]4[C@@]5(COC[C@@]4(C)[C@@H](OC[C@](C)(N)C(C)(C)C)[C@H](n4ncnc4-c4ccncc4)C5)C3=CC[C@@]2(C)[C@@H]1C(=O)O
25.7

* * *

# Assay protocol: in vivo
# Design: species or system female CD-1 mice
# Test context: female, CD-1, mouse, iv, 1 mg/kg
Experimental endpoint: clearance (mL/min/kg)
Dear colleague, please return just the value in mL/min/kg, with no unit written.

Give the measured clearance of CC(C)[C@@H](C)[C@@]1(C)CC[C@]2(C)[C@H]3CC[C@@H]4[C@@]5(COC[C@@]4(C)[C@@H](OC[C@](C)(N)C(C)(C)C)[C@H](n4ncnc4-c4ccncc4)C5)C3=CC[C@@]2(C)[C@@H]1C(=O)O .
11.3
